Reference source: patent US10077277B2

Provide the reported pIC50 of each item.
Tested Target: PI3Kδ (p110δ/p85α) (Homo sapiens (Human))
Method: PI3Kδ scintillation proximity assay (Example A3)
Recorded Conditions: Assay A3, 20 μM ATP
pIC50: −log10 of the molar value. Counter-ions that a name gives are not always drawn.

Looking up COc1c([C@H](C)Nc2ncnc3cccnc23)cc(Cl)c(C)c1-c1ccc(C(=O)N(C)C)nc1 [Example 3, bis(trifluoroacetate)] , I see its pIC50 listed as ≥ 7.00

Looking up CCOc1c([C@@H](C)Nc2ncnc3cccnc23)cc(Cl)c(F)c1[C@@H]1CNC(=O)C1 [Example 2A] , I see its pIC50 listed as ≥ 7.00

Looking up CCOc1c(C(C)Nc2ncnc3scnc23)cc(Cl)c(F)c1C1CNC(=O)C1 (single isomer, unassigned) [Example 1B] , I see its pIC50 listed as 6.40 to 7.00

Looking up CCOc1c(C(C)Nc2ncnc3scnc23)cc(Cl)c(F)c1C1CNC(=O)C1 (stereo not shown) [Example 1, trifluoroacetate] , I see its pIC50 listed as ≥ 7.00

* * *

Tested Target: PI3Kδ (p110δ/p85α) (Homo sapiens (Human), UniProt O00329)
Sequence (O00329 whole entry): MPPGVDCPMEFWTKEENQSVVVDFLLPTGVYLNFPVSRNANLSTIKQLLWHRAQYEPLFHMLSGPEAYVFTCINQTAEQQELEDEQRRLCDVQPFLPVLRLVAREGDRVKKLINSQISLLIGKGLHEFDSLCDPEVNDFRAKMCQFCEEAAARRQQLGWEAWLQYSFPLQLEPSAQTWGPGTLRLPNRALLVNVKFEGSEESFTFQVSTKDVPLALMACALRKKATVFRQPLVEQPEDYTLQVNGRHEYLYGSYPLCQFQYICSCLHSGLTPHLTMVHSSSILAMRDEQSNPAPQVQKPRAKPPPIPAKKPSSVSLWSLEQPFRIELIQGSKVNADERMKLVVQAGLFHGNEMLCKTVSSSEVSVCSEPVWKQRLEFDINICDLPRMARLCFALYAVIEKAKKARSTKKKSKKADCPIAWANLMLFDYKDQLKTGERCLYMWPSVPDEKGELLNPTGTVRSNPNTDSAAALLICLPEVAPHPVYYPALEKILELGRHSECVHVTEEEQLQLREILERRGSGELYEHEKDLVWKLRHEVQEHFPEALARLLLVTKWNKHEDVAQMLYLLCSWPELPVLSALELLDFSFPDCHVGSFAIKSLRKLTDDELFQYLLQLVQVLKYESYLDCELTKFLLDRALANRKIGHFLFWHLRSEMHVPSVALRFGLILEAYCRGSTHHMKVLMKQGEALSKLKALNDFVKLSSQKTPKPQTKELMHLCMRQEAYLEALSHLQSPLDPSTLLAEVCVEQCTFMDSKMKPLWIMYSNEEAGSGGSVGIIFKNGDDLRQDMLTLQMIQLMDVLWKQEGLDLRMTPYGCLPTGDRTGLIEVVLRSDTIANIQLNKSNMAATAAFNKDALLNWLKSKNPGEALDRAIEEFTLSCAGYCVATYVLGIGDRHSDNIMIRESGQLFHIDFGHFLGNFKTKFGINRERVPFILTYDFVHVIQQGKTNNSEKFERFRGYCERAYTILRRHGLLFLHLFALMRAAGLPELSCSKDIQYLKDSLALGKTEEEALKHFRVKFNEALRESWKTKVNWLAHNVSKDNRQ
Sequence (P27986 whole entry partner): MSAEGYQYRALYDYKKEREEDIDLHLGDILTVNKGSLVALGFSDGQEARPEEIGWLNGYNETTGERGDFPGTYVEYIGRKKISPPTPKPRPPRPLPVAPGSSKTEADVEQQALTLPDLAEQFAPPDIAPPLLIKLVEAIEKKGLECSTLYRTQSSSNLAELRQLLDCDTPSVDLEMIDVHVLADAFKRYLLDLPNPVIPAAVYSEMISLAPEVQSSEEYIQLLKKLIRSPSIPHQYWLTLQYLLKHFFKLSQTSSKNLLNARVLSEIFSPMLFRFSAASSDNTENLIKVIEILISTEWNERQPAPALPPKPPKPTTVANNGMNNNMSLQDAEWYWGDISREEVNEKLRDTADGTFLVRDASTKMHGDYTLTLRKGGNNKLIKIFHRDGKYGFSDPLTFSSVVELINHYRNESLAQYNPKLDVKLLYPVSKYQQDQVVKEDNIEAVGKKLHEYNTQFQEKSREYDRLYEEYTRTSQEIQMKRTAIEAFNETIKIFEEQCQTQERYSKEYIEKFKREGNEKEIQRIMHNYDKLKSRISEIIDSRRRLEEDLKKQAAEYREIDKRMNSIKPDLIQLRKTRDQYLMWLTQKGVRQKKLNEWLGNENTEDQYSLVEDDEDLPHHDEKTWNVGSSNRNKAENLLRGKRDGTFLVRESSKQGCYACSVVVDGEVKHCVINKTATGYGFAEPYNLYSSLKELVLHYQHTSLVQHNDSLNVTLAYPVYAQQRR
Method: PI3Kδ scintillation proximity assay (Example A3)
Type: biochemical
Recorded Conditions: Assay A3, 20 μM ATP
Provide the reported IC50 of each item.

Looking up CCOc1c(C(C)Nc2ncnc3scnc23)cc(Cl)c(F)c1C1CNC(=O)C1 (single isomer, unassigned) [Example 1C] , I see its IC50 listed as ≤ 100 nM

Looking up CCNC(=O)c1c(C)c(Cl)cc(C(C)Nc2ncnc3cccnc23)c1-c1cc(F)cc(F)c1 (stereo not shown) , I see its IC50 listed as ≤ 100 nM

Looking up CCOc1c([C@@H](C)Nc2ncnc3cccnc23)cc(Cl)c(F)c1[C@@H]1CNC(=O)C1 (single isomer, unassigned) [Example 2D] , I see its IC50 listed as 100 to 400 nM

Looking up CCOc1c(C(C)Nc2ncnc3cccnc23)cc(Cl)c(F)c1C1CNC(=O)C1 (stereo not shown) , I see its IC50 listed as ≤ 100 nM

Looking up CCOc1c(C(C)Nc2ncnc3scnc23)cc(Cl)c(F)c1C1CNC(=O)C1 (single isomer, unassigned) [Example 1D] , I see its IC50 listed as 100 to 400 nM

Looking up CCOc1c([C@@H](C)Nc2ncnc3cccnc23)cc(Cl)c(F)c1[C@@H]1CNC(=O)C1 (single isomer, unassigned) [Example 2B] , I see its IC50 listed as 100 to 400 nM

Looking up CCOc1c(C(C)Nc2ncnc3scnc23)cc(Cl)c(F)c1C1CNC(=O)C1 (single isomer, unassigned) [Example 1A] , I see its IC50 listed as ≤ 100 nM
